biological target: T1, HER3-ECD^I-IV, soluble extracellular domains of recombinant HER3 purified from Chinese hamster ovary cells (human, UniProt P21860 20-643); assay: method not given; compared with the Kd of HER3-ECD^I-II (68 nM); form of hrg not stated
T1 construct: also called nonproteolyzed HER3-ECD^I-IV
T1 sequence (P21860 20-643 E560G): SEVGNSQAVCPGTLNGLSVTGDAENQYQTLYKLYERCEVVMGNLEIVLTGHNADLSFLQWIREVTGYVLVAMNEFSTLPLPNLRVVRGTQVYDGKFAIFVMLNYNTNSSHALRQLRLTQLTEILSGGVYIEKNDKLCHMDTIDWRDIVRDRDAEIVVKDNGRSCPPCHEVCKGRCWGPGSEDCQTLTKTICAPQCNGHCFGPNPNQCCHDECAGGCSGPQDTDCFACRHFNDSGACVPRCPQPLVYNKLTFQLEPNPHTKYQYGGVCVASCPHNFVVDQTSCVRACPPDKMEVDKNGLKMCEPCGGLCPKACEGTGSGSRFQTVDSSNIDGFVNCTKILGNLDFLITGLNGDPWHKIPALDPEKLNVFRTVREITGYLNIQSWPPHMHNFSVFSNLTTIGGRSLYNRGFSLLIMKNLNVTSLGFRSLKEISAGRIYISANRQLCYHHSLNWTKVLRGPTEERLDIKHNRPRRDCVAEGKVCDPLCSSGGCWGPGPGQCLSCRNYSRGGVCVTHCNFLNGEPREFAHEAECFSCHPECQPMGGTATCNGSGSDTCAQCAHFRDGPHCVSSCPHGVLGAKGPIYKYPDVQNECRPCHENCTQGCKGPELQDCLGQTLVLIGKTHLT
assay.endpoint: Kd (nM)
Output spec: scalar in nM, unitless text.

For record hrg, 60-residue EGF-like domain of human heregulin beta1 (residues 177-237) (ligand, also called I^25 hrg) SHLVKCAEKEKTFCVNGGECFMVKDLSNPSRYLCKCPNEFTGDRCQNYVMASFYKHLGIEF the listed Kd is 1.9
